# Assay target: IGF1R (Homo sapiens)
# Construct: 6×His- or GST-tagged kinase domain fragments of the corresponding RTKs expressed in baculovirus system; host or cells: baculovirus system
# Sequence (P08069 999-1274 limits assumed): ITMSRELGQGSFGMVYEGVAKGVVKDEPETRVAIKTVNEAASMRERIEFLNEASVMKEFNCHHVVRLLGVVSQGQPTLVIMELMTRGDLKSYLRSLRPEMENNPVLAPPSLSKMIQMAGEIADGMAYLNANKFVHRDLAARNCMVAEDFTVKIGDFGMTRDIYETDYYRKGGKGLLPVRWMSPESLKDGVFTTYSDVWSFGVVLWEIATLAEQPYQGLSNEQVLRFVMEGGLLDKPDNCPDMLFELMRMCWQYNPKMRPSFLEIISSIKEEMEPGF
# Protocol description: IGF1R kinase assay
# Assay type: biochemical
# Details: Table 1; read-out: IGF1R IC50
pIC50: −log10 of the molar value.
Readout label: pIC50

>  <Molecule>
C[C@@H](Cc1cccs1)Nc1cc[nH]c(=O)c1-c1nc2cc3c(cc2[nH]1)C(=O)N(CCCN1CCCC1)C3=O

>  <Assay target>
IGF1R (Homo sapiens)

>  <Result>
< 6.00

$$$$
>  <Molecule>
Cc1cccc(C)c1C[C@H](C)Nc1cc[nH]c(=O)c1-c1nc2cc3c(cc2[nH]1)C(=O)N(CCN1CCCC1)C3

>  <Assay target>
IGF1R (Homo sapiens)

>  <Result>
< 6.00

$$$$
>  <Molecule>
CC(Cc1cccs1)Nc1cc[nH]c(=O)c1-c1nc2cc3c(cc2[nH]1)C(=O)N(CCCN1CCCC1)C3=O (stereo not shown)

>  <Assay target>
IGF1R (Homo sapiens)

>  <Result>
< 6.00

$$$$
>  <Molecule>
CC(Cc1ccc(Cl)s1)Nc1cc[nH]c(=O)c1-c1nc2cc3c(cc2[nH]1)C(=O)N(CCCN1CCCC1)C3 (stereo not shown)

>  <Assay target>
IGF1R (Homo sapiens)

>  <Result>
6.00 to 6.60

$$$$
